# Tested on: NCI-H23 lung
# method_notes: NCI-60 one-dose screen, 48 h (100 = growth as untreated, 0 = no growth, -100 = all killed)
# assay_context: 10 µM unless noted
Compounds without any hit were thinned out: in the full panel of roughly 83,000, 20% have a hit.
Mark not fulfilled for growth values under 90%, and fulfilled for everything at or above.

> print(dat)
                                smiles.repr  discrete.label
1  COc1ccc(N=Cc2c(O)ccc3c2oc2cc(Cl)c(O)c(Cl)c23)cc1       fulfilled
2       O=C1/C(=C/c2ccccc2)Oc2ccc(O)c(I)c21       fulfilled
3  Cn1cc(-c2cnc3ccc(NC(=O)Nc4ccc(F)c(Br)c4)cc3n2)cn1   not fulfilled

###

# System: NCI/ADR-RES ovarian
# method_notes: NCI-60 one-dose screen, 48 h
# assay_context: 10 µM unless noted
The panel holds about 83,000 compounds, 20% with a hit somewhere; the sample as a whole holds those more often. The source made the active and inactive calls. Rule for the calls: active = growth percent below 10; inactive = the rest.
Classes used: active, inactive

> print(dat)
                                   molecule  discrete.label
1  CCN(CC)CCCC(C)Nc1c2ccc(Cl)cc2nc2cc(OC)c(OC)cc12 (stereo not given)        inactive
2  O=C([O][Sn]([O]C(=O)c1ccccn1)([c]1ccccc1)[c]1ccccc1)c1ccccn1        inactive
3  CCc1ccc(-c2ccc(=O)n(-c3ccc(S(N)(=O)=O)cc3)n2)cc1          active
4  COc1cc(NC(N)=NCCC(C)(C)c2ccc(C(F)(F)F)cc2)ncc1C#N        inactive
5                OCCCCCCNc1ncnc2cc(Cl)ccc12        inactive

###

# Test system: UO-31 renal
# method_notes: NCI-60 one-dose screen, 48 h (100 = growth as untreated, 0 = no growth, -100 = all killed)
# assay_context: 10 µM unless noted
About 83,000 compounds went through this panel and 20% of them were active in at least one assay; those are over-represented in the sample as a whole.
As shown below, each of these compounds has a reported growth value.
parameter_measured: growth (%)

> print(dat)
                                    compound  tested.target  parameter.measured  measurement.units  test.result
 1  COc1ccc(-c2[nH]nc(N)c2-c2cc(OC)c3c(c2)OCO3)cc1    UO-31 renal              growth                  %         68.1
 2                       CNC(=S)NNC(=O)C1CC1    UO-31 renal              growth                  %         77.5
 3  O=C(CN1CCN(c2cc3c(cc2F)c(=O)c(C(=O)N/N=C/c2ccccc2O)cn3C2CC2)CC1)N/N=C\c1ccccc1O    UO-31 renal              growth                  %          4.8
 4  O=[N+]([O-])c1cc(S(=O)(=O)Oc2ccccc2)ccc1Cl    UO-31 renal              growth                  %        -87.7
 5  COc1ccc(Nc2ncccc2C(=O)NCc2cn(Cc3cccc(Oc4ccccc4)c3)nn2)cc1    UO-31 renal              growth                  %         40.9
 6      O=C1C(Cl)=C(Nc2ccccn2)C(=O)c2ccccc21    UO-31 renal              growth                  %         12.6
 7                   Cc1ccc2nc(Cl)cc(=O)n2c1    UO-31 renal              growth                  %         84.3
 8  CCOC(=O)c1cn2c3c(cc(C)cc3c1=O)C(=O)/C(=C/c1ccccc1)C2    UO-31 renal              growth                  %         57.6
 9  Cc1nn(-c2ccc([N+](=O)[O-])cc2)c2ncnc(NCCc3ccccc3)c12    UO-31 renal              growth                  %         79.7
10  COC1=C(OC)C(=O)C(CCCCCCCCCC[P+](c2ccccc2)(c2ccccc2)c2ccccc2)=C(C)C1=O    UO-31 renal              growth                  %        -18.2
11  N#Cc1ccc(N2Cc3ccccc3OC3=C2C(=O)c2c(O)ccc(O)c2C3=O)cc1    UO-31 renal              growth                  %        -80.5
12  CCCCCCCCCCCCCCCCCCNC(=O)[C@H]1CSC(c2ccc(OC)cc2O)N1 (stereo partly specified)    UO-31 renal              growth                  %         53.5
13  CC(C)(C)n1cc(-c2ccnc(NCCCNS(=O)(=O)c3ccc(Cl)cc3)c2)c(-c2cccc(O)c2)n1    UO-31 renal              growth                  %           11
14  N#C/C(=C1C=C/C(=N/O)C(Cl)=C/1)c1ccc(Cl)cc1    UO-31 renal              growth                  %         44.9
15  COc1ccc(/C=C2\Oc3cc(OCCCN4CCCC4)ccc3C2=O)cc1    UO-31 renal              growth                  %         73.9
16  CN(C)c1oc(C2OC2c2ccccc2)nc1C#N (stereo unspecified)    UO-31 renal              growth                  %         77.8
17  O=C1c2c(c3c4ccccc4n(CCCCCCBr)c3c3[nH]c4ccccc4c23)C(=O)N1O    UO-31 renal              growth                  %        0.628
18                      OCc1ncc(-c2ccccc2)s1    UO-31 renal              growth                  %         97.9
19  CN(C)CC(C(=O)c1ccccc1)c1ccccc1 (stereo unspecified)    UO-31 renal              growth                  %         41.3
20  CC(=O)Oc1cccc(S(=O)(=O)n2cc(C(=O)C(=O)Nc3ccncc3)c3ccccc32)c1    UO-31 renal              growth                  %         75.3
21  O=C(Nc1ccc(NCCN2CCOCC2)nc1)c1ccc([N+](=O)[O-])cc1    UO-31 renal              growth                  %         96.2

###

# System: SK-OV-3 ovarian
# method_notes: NCI-60 one-dose screen, 48 h (100 = growth as untreated, 0 = no growth, -100 = all killed)
# assay_context: 10 µM unless noted
The panel holds about 83,000 compounds, 20% with a hit somewhere; the sample as a whole holds those more often.
parameter_measured: growth (%)

> print(dat)
                                    molecule  measurement.units  test.result
 1  O=S(=O)(NCCNc1nccc(-c2c(-c3ccc(F)cc3)nc3sccn23)n1)c1ccc(F)cc1                  %         92.7
 2                  CCOC(=O)NNC(=S)Nc1ccccc1                  %          111
 3  Cn1ccc(Nc2nccc(Oc3ccc(C(=O)Nc4cccc(F)c4)c(Cl)c3)n2)c1                  %         15.9
 4  O=C(NNC(=S)Nc1ccccc1)c1cc2ccc1CCc1ccc(cc1)CC2                  %          113
 5  N#C/C(=C1C=C/C(=N/O)C(Cl)=C/1)c1ccc(Cl)cc1                  %          121
 6  COc1cc(/C=C/C(=O)/C=C/c2cc(OC)c3c(c2)OCO3)cc2c1OCO2                  %         86.6
 7  COc1ccncc1S(=O)(=O)NC(=O)Nc1ccc(Cl)c(Cl)c1                  %          114
 8  CC(C)(C)n1cc(-c2ccnc(NCCNS(=O)(=O)c3ccc(C(F)(F)F)cc3)c2)c(-c2cccc(O)c2)n1                  %         86.3
 9  COc1ccc(S(=O)(=O)Nc2cc(/C=C\c3cc(OC)c(OC)c(OC)c3)cc(OC)c2OC)cc1                  %         20.6
10  Cc1ccc(S(=O)(=O)NCCCNc2cc(-c3cn(C(C)(C)C)nc3-c3cccc(O)c3)ccn2)cc1                  %         85.7
11  O=S(=O)(NCCNc1nccc(-c2c(-c3ccc(O)cc3)nc3sccn23)n1)c1cccc2ccccc12                  %          106
12  COc1cc2c(=O)n(C3CCCCCC3)c3c4cc[nH]c4ncc3c2cc1OC                  %         82.3
13  O=[N+]([O-])c1cccc(-c2nc3sccn3c2-c2ccnc(NCCCNS(=O)(=O)c3ccc(C(F)(F)F)cc3)n2)c1                  %         71.9
14              Clc1ccc(-c2nc3ccccc3s2)cc1Cl                  %          108
15                 COc1cc(NCCCCCN)c2ncccc2c1                  %          109
16     C=C(C)[C@@H]1C[C@@H]2Cc3cc(F)ccc3N1O2                  %          104
17  COc1cc(C2NN=C3c4ccccc4CCC32)cc(OC)c1OC (stereo unspecified)                  %           69
18  COc1cc(C(=O)/C=C/c2c(C)n([O-])c3ccc(C(F)(F)F)cc3[n+]2=O)cc(OC)c1OC                  %         87.3
19  CCOC(=O)c1cn2c3c(cccc3c1=O)C(=O)/C(=C/c1cccc(Cl)c1Cl)C2                  %         86.1
20  O=C(/C=C\c1cccc([N+](=O)[O-])c1)/C=C/c1cccc([N+](=O)[O-])c1                  %         95.5
21            CC(=O)Nc1nc(N)nc(NC(C)=O)c1N=O                  %          103
